tested on: p42-MAP kinase; test: Signal transduction assay: bFGF-induced phosphorylation/activation of MAP kinase in NIH 3T3 cells; type: cell-based; conditions: 1 nM bFGF, FIG. 5, read-out: Concentration that half maximally antagonizes bFGF activation of MAP-K
pIC50: −log10 of the molar value. No end group written: not given here.
readout kind: pIC50

Which pIC50 is listed for GAHYLRQYLMRFLG-NH2 [Compound 658, H-GAHYLRQYLMRFLG-NH*TFA] ?
~5.52

====

The reader will find reported pIC50 values listed item by item below.
test system: NIH 3T3 cells; format: cell-based
pIC50: −log10 of the molar value. Residues, ends and D or L forms follow the SMILES beside them. *: point of attachment. Biotin = O=C1N[C@H]2[C@H](CS[C@H]2CCCCC(=O)*)N1

{"compound": "CC(=O)NCC(=O)N[C@@H](CS)C(=O)N[C@H](C(=O)N[C@@H](CC(C)C)C(=O)N[C@@H](CC(C)C)C(=O)N[C@@H](Cc1ccc(O)cc1)C(=O)N[C@@H](CC(=O)O)C(=O)N[C@@H](CCC(=O)O)C(=O)N[C@@H](CCCNC(=N)N)C(=O)N[C@H](C(=O)N[C@@H](CS)C(=O)NCC(N)=O)[C@@H](C)O)C(C)C [Compound 513, Acetyl-GCVLLYDERTCG-NH] (Ac-GCVLLYDERTCG-NH2)", "target or test system": "NIH 3T3 cells", "pIC50": "< 4.00"}
{"compound": "CC(C)C[C@H](NC(=O)[C@H](CC(C)C)NC(=O)[C@H](CC(=O)O)NC(=O)[C@H](CC(=O)O)NC(=O)[C@H](Cc1c[nH]c2ccccc12)NC(=O)[C@H](CC(=O)O)NC(=O)[C@H](Cc1ccc(O)cc1)NC(=O)CNC(=O)[C@H](C)NC(=O)[C@H](C)NC(=O)CNC(=O)[C@H](CC(=O)O)NC(=O)[C@H](C)NC(=O)CCCC[C@@H]1SC[C@@H]2NC(=O)N[C@@H]21)C(=O)NCC(=O)NCC(=O)N[C@@H](C)C(=O)N[C@@H](C)C(N)=O [Compound 478, Biotin-ADGAAGYDWDDLLGGAA-NH] (Biotin-ADGAAGYDWDDLLGGAA-NH2)", "target or test system": "NIH 3T3 cells", "pIC50": "< 4.00"}

We next turn to a different compound, shown below.
Find the recorded pIC50 belonging to CC(C)C[C@H](NC(=O)[C@H](CC(C)C)NC(=O)[C@H](CC(=O)O)NC(=O)[C@H](CC(=O)O)NC(=O)[C@H](Cc1c[nH]c2ccccc12)NC(=O)[C@H](CC(=O)O)NC(=O)[C@H](Cc1ccc(O)cc1)NC(=O)CNC(=O)[C@H](C)NC(=O)[C@H](C)NC(=O)CNC(=O)[C@H](CC(=O)O)NC(=O)[C@H](C)NC(=O)CCCC[C@@H]1SC[C@@H]2NC(=O)N[C@@H]21)C(=O)N[C@@H](CO)C(=O)NCC(=O)N[C@@H](C)C(=O)N[C@@H](C)C(N)=O [Compound 476, Biotin-ADGAAGYDWDDLLSGAA-NH] (Biotin-ADGAAGYDWDDLLSGAA-NH2) and report it.
< 4.00

====

Known IC50 of a selection of molecules
tested on: NIH 3T3 cells; type: cell-based
Residues, ends and D or L forms follow the SMILES beside them.

{"molecule": "CC(=O)NCC(=O)N[C@@H](CS)C(=O)N[C@H](C(=O)N[C@@H](CC(=O)O)C(=O)N[C@@H](CC(C)C)C(=O)N[C@@H](Cc1ccc(O)cc1)C(=O)N[C@@H](Cc1c[nH]cn1)C(=O)N[C@@H](Cc1ccc(O)cc1)C(=O)N[C@H](C(=O)N[C@@H](Cc1ccc(O)cc1)C(=O)N[C@@H](CS)C(=O)NCC(N)=O)C(C)C)C(C)C [Compound 514, Acetyl-GCVDLYHYVYCG-NH] (Ac-GCVDLYHYVYCG-NH2)", "IC50": "10 to 100 µM"}

For the molecule shown here, CC(C)C[C@H](NC(=O)[C@H](CC(=O)O)NC(=O)[C@@H](NC(=O)[C@H](CS)NC(=O)CNC(=O)[C@H](C)NC(=O)[C@H](C)NC(=O)CNC(=O)[C@H](CC(=O)O)NC(=O)[C@H](C)N)C(C)C)C(=O)N[C@@H](Cc1ccc(O)cc1)C(=O)N[C@@H](Cc1c[nH]cn1)C(=O)N[C@@H](Cc1ccc(O)cc1)C(=O)N[C@H](C(=O)N[C@@H](Cc1ccc(O)cc1)C(=O)N[C@@H](CS)C(=O)NCC(=O)NCC(=O)N[C@@H](C)C(=O)N[C@@H](C)C(N)=O)C(C)C [Compound 507] (H-ADGAAGCVDLYHYVYCGGAA-NH2) , give the reported IC50.
10 to 100 µM
